Source: ChEMBL document CHEMBL3425477

Target: Prostaglandin G/H synthase 2 (Homo sapiens)
Sequence (P35354 whole entry): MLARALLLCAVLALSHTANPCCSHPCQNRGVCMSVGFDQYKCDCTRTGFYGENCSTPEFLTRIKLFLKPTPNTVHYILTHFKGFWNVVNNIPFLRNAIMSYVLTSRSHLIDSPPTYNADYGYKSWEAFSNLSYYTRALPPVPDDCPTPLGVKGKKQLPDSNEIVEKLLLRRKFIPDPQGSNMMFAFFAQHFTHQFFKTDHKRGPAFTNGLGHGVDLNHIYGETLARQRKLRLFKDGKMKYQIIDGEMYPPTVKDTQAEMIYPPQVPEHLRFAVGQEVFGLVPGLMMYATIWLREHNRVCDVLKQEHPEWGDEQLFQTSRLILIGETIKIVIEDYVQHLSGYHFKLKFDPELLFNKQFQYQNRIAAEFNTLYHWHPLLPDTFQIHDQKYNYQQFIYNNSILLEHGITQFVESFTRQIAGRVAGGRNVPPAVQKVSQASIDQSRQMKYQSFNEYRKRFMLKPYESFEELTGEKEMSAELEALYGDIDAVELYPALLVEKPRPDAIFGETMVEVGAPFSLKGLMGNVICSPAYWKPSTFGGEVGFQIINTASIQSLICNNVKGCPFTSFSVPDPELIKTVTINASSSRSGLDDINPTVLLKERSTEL
Experiment: Inhibition of human recombinant COX2 pre-incubated for 15 mins followed by addition of heme and fluorometric substrate and further incubated for 15 mins in presence of arachidonic acid by fluorescence based assay
// reported IC50 for each item listed
Could you kindly put the unit after your number?

Worked examples follow.
CC(=O)N[C@H]1Oc2ccc(CCO)cc2O[C@@H]1c1ccc(O)c(O)c1 (relative stereo) = 2.5 µM
CO[C@@]1(c2ccc(O)c(O)c2)Oc2ccc(CCO)cc2O[C@@H]1O = 8.24 µM
CO[C@]1(c2ccc(O)c(O)c2)Oc2cc(CCO)ccc2O[C@H]1O = 9.7 µM
CC(=O)/N=C/Cc1ccc2c(c1)O[C@H](c1ccc(O)c(O)c1)[C@@H](NC(C)=O)O2 (relative stereo) = 2.7 µM
CCO[C@@]1(c2ccc(O)c(O)c2)Oc2cc(CCO)ccc2O[C@@H]1O = 13.7 µM
CC(=O)NCCc1ccc2c(c1)O[C@H](c1ccc(O)c(O)c1)[C@@H](NC(C)=O)O2 (relative stereo) = 3.6 µM
CCO[C@]1(c2ccc(O)c(O)c2)Oc2cc(CCO)ccc2O[C@H]1O = 8.6 µM
CO[C@]1(c2ccc(O)c(O)c2)Oc2ccc(CCO)cc2O[C@H]1O = 6.02 µM

Consider the record given below.
Look up Prostaglandin G/H synthase 2 (Homo sapiens) data: IC50 of CCOC1(c2ccc(O)c(O)c2)Oc2ccc(CCO)cc2OC1O (centres undefined) , then report it.
6.04 µM

----------
Biological target: Prostaglandin G/H synthase 2 (Homo sapiens, UniProt P35354)
Sequence (P35354 whole entry): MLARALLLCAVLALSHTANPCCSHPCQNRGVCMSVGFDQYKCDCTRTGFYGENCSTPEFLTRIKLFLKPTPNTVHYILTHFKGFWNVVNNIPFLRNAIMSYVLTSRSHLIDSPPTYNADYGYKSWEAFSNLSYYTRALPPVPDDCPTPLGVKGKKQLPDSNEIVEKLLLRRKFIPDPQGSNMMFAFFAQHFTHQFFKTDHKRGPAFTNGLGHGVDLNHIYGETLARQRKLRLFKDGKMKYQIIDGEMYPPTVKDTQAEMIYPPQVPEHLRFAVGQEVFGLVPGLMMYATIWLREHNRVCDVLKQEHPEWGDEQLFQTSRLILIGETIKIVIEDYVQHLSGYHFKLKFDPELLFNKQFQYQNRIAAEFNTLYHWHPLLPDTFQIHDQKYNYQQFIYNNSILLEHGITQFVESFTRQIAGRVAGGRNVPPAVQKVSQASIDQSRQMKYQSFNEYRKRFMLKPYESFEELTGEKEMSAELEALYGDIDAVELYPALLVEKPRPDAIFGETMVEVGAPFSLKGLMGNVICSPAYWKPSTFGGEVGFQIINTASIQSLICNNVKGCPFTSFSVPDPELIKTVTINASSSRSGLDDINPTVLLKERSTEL
Assay: Inhibition of human recombinant COX2 pre-incubated for 15 mins followed by addition of heme and fluorometric substrate and further incubated for 15 mins in presence of arachidonic acid by fluorescence based assay
// reported IC50 for each item listed
Provide the reading as a plain figure in µM.

Worked examples follow.
CCO[C@@]1(c2ccc(O)c(O)c2)Oc2ccc(CCO)cc2O[C@@H]1O = 2.52
CO[C@@]1(c2ccc(O)c(O)c2)Oc2cc(CCO)ccc2O[C@@H]1O = 17.8
CC(=O)NCCc1ccc2c(c1)O[C@H](NC(C)=O)[C@@H](c1ccc(O)c(O)c1)O2 = 2.6

Complete the entry with IC50 for CC(=O)N[C@H]1Oc2cc(CCO)ccc2O[C@@H]1c1ccc(O)c(O)c1 (relative stereo)
1.3
